What follows is a record of pKi for Coagulation factor X (Homo sapiens, UniProt P00742).
Answers are plain numbers, as −log10 of the molar value.

Form: Entry = Nc1noc2ccc(-n3nc(C(F)(F)F)c4c3C(=O)N(c3ccc(-c5ccccc5CN5CCCC5)cc3F)CC4)cc12 | System = Coagulation factor X (Homo sapiens, UniProt P00742) | pKi = ____
9.62

Form: Entry = CN(C)Cc1ccccc1-c1ccc(N2CCc3c(C(F)(F)F)nn(-c4ccc5onc(N)c5c4)c3C2=O)c(F)c1 | System = Coagulation factor X (Homo sapiens, UniProt P00742) | pKi = ____
9.89

Form: Entry = Nc1noc2ccc(-n3nc(C(F)(F)F)c4c3C(=O)N(c3ccc(-c5ccccc5CN5CCNCC5)cc3)CC4)cc12 | System = Coagulation factor X (Homo sapiens, UniProt P00742) | pKi = ____
9.19

Form: Entry = Cc1nn(-c2ccc3onc(N)c3c2)c2c1CCN(c1ccc(-c3ccccc3CN3CCCC3)cc1)C2=O | System = Coagulation factor X (Homo sapiens, UniProt P00742) | pKi = ____
9.51

Form: Entry = Nc1noc2ccc(-n3nc(C(F)(F)F)c4c3C(=O)N(c3ccc(-c5ccccc5CN5CCC(O)CC5)cc3)CC4)cc12 | System = Coagulation factor X (Homo sapiens, UniProt P00742) | pKi = ____
9.66

Form: Entry = CN(C)Cc1ccccc1-c1ccc(N2CNc3c(C(F)(F)F)nn(-c4ccc5onc(N)c5c4)c3C2=O)cc1 | System = Coagulation factor X (Homo sapiens, UniProt P00742) | pKi = ____
9.60

Form: Entry = Cc1nn(-c2ccc3onc(N)c3c2)c2c1CCN(c1ccc(-c3ccccc3CN3CC[C@@H](O)C3)cc1F)C2=O | System = Coagulation factor X (Homo sapiens, UniProt P00742) | pKi = ____
9.47

Form: Entry = Nc1noc2ccc(-n3nc(C(F)(F)F)c4c3C(=O)N(c3ccc(-c5ccccc5CN5CC[C@@H](O)C5)cc3F)CC4)cc12 | System = Coagulation factor X (Homo sapiens, UniProt P00742) | pKi = ____
9.80

Provide pKi values for the following items, in order.
1. Cc1nn(-c2ccc3onc(N)c3c2)c2c1CCN(c1ccc(-c3ccccc3CN3CC[C@@H](O)C3)cc1)C2=O
2. CN(C)Cc1ccccc1-c1ccc(N2CC=Cc3c(C(F)(F)F)nn(-c4ccc5onc(N)c5c4)c3C2=O)cc1
3. Cc1nn(-c2ccc3onc(N)c3c2)c2c1CCN(c1ccc(-c3ccccc3CN(C)C)cc1)C2=O

1: 9.57; 2: 9.22; 3: 9.26

Form: Entry = CN(C)Cc1ccccc1-c1ccc(N2CCc3c(C(F)(F)F)nn(-c4ccc5onc(N)c5c4)c3C2=O)cc1 | System = Coagulation factor X (Homo sapiens, UniProt P00742) | pKi = ____
10.40

###

Exercise: state measured Vd for each of the compounds provided.
Test Protocol: Volume of distribution in dog
Format: ADME, organism-based, Canis lupus familiaris
Run Conditions: in vivo, read-out: Vdss
Numbers only, in L/kg.

Which value of Vd has been reported for Nc1noc2ccc(-n3nc(C(F)(F)F)c4c3C(=O)N(c3ccc(-c5ccccc5CN5CC[C@H](O)C5)cc3)CC4)cc12 in the records?
1.12

Which value of Vd has been reported for CNCc1ccccc1-c1ccc(N2CCc3c(C(F)(F)F)nn(-c4ccc5onc(N)c5c4)c3C2=O)cc1 in the records?
9.7

Which value of Vd has been reported for Nc1noc2ccc(-n3nc(C(F)(F)F)c4c3C(=O)N(c3ccc(-c5ccccc5CN5CC[C@@H](O)C5)cc3F)CC4)cc12 in the records?
2.8

Turning now to a further record.
Which value of Vd has been reported for Nc1noc2ccc(-n3nc(C(F)(F)F)c4c3C(=O)N(c3ccc(-c5ccccc5CN5CCCC5)cc3)CC4)cc12 in the records?
5

###

Target Entity: Prothrombin (Homo sapiens, UniProt P00734)
pKi: −log10 of the molar value.
Classify by measured pKi: label 1 if it is equal to or exceeds 7, label 0 if it is smaller.

Is pKi at least 7? Consider Nc1noc2ccc(-n3nc(C(F)(F)F)c4c3C(=O)N(c3ccc(-c5ccccc5CN5CCCC5)cc3)CC4)cc12
label 1

Is pKi at least 7? Consider CN1CCN(Cc2ccccc2-c2ccc(N3CCc4c(C(F)(F)F)nn(-c5ccc6onc(N)c6c5)c4C3=O)cc2)CC1
label 0

Is pKi at least 7? Consider CN(C)Cc1ccccc1-c1ccc(N2CCc3c(C(F)(F)F)nn(-c4ccc5onc(N)c5c4)c3C2=O)cc1
label 1

Others:
Is pKi at least 7? Consider Cc1nn(-c2ccc3onc(N)c3c2)c2c1CCN(c1ccc(-c3ccccc3CN3CC[C@@H](O)C3)cc1F)C2=O
label 0

###

Target Entity: Plasma kallikrein (Homo sapiens, UniProt P03952)
Sequence (P03952 20-390 limits assumed): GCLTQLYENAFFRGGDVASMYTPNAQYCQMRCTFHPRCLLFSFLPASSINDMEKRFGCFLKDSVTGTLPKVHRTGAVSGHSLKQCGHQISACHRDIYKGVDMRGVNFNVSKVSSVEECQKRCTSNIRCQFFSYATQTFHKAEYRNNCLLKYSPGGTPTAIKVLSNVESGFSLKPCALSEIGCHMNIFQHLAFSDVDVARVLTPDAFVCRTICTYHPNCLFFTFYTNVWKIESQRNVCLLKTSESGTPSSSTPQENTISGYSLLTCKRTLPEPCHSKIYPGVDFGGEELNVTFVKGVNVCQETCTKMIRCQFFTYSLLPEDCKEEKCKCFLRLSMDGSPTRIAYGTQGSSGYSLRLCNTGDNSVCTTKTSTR
Sequence (P03952 391-638 limits assumed): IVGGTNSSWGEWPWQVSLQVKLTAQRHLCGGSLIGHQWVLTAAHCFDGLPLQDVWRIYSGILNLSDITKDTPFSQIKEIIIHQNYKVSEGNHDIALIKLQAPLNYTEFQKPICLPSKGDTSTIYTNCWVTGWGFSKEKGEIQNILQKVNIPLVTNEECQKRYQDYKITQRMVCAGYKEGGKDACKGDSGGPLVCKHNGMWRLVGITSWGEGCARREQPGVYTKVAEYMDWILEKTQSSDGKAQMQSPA
Test Protocol: Binding affinity to human plasma kallikrein
Property Label: Ki

Which value of Ki has been reported for Nc1noc2ccc(-n3nc(C(F)(F)F)c4c3C(=O)N(c3ccc(-c5ccccc5CN5CC[C@@H](O)C5)cc3)CC4)cc12 in the records?
> 2.8 µM

###

Target Entity: Vitamin K-dependent protein C (Homo sapiens, UniProt P04070)
Sequence (P04070 43-197 limits assumed): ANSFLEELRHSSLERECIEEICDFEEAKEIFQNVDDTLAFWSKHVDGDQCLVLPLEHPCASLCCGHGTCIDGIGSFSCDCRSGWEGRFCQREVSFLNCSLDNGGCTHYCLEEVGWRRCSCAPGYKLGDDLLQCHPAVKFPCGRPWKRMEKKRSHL
Sequence (P04070 212-461 limits assumed): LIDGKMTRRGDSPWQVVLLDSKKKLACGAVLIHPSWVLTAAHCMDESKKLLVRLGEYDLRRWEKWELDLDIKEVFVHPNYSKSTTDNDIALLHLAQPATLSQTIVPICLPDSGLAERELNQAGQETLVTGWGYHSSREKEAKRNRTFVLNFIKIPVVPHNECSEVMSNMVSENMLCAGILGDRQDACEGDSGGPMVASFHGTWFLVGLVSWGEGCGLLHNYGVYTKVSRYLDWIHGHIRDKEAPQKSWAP
pKi: −log10 of the molar value.
Property Label: pKi

Which value of pKi has been reported for CN(C)Cc1nccn1-c1ccc(NC(=O)c2cc(C(F)(F)F)nn2-c2ccc3onc(N)c3c2)c(F)c1 in the records?
< 5.64

###

Test Protocol: Clearance in dog
Assay type: ADME, organism-based, Canis lupus familiaris
Run Conditions: in vivo
Labels assigned by clearance range: group A: < 7 mL/min/kg; group B: ≥ 7 mL/min/kg and < 20 mL/min/kg; group C: ≥ 20 mL/min/kg

For the record Cc1nn(-c2ccc3onc(N)c3c2)c2c1CCN(c1ccc(-c3ccccc3CN(C)C)cc1)C2=O , report the class its clearance corresponds to.
group C

For the record CNCc1ccccc1-c1ccc(N2CCc3c(C(F)(F)F)nn(-c4ccc5onc(N)c5c4)c3C2=O)cc1 , report the class its clearance corresponds to.
group C

For the record Nc1noc2ccc(-n3nc(C(F)(F)F)c4c3C(=O)N(c3ccc(-c5ccccc5CN5CCCC5)cc3F)CC4)cc12 , report the class its clearance corresponds to.
group B

For the record Nc1noc2ccc(-n3nc(C(F)(F)F)c4c3C(=O)N(c3ccc(-c5ccccc5CN5CCC(O)CC5)cc3)CC4)cc12 , report the class its clearance corresponds to.
group A

For the record CN(C)Cc1ccccc1-c1ccc(N2CCc3c(C(F)(F)F)nn(-c4ccc5onc(N)c5c4)c3C2=O)c(F)c1 , report the class its clearance corresponds to.
group B

Others:
For the record Nc1noc2ccc(-n3nc(C(F)(F)F)c4c3C(=O)N(c3ccc(-c5ccccc5CN5CC[C@@H](O)C5)cc3F)CC4)cc12 , report the class its clearance corresponds to.
group A

For the record CN(C)Cc1ccccc1-c1ccc(N2CCc3c(C(F)(F)F)nn(-c4ccc5onc(N)c5c4)c3C2=O)cc1 , report the class its clearance corresponds to.
group B

For the record Nc1noc2ccc(-n3nc(C(F)(F)F)c4c3C(=O)N(c3ccc(-c5ccccc5CN5CCCC5)cc3)CC4)cc12 , report the class its clearance corresponds to.
group B

For the record Cc1nn(-c2ccc3onc(N)c3c2)c2c1CCN(c1ccc(-c3ccccc3CN3CC[C@@H](O)C3)cc1F)C2=O , report the class its clearance corresponds to.
group B

For the record Nc1noc2ccc(-n3nc(C(F)(F)F)c4c3C(=O)N(c3ccc(-c5ccccc5CN5CC[C@H](O)C5)cc3)CC4)cc12 , report the class its clearance corresponds to.
group A

For the record Cc1nn(-c2ccc3onc(N)c3c2)c2c1CCN(c1ccc(-c3ccccc3CN3CCCC3)cc1)C2=O , report the class its clearance corresponds to.
group C

###

Exercise: state measured 2PT for each of the compounds provided.
Target Entity: Coagulation factor VII/tissue factor (Homo sapiens) (UniProt P08709+P13726)
Test Protocol: Anticoagulant activity in plasma by PT assay
Type: functional, cell-free
One number for each entry, in µM.

Guide cases for 2PT, answers given:
Form: Entry = Nc1noc2ccc(-n3nc(C(F)(F)F)c4c3C(=O)N(c3ccc(-c5ccccc5CN5CCCC5)cc3F)CC4)cc12 | System = Coagulation factor VII/tissue factor (Homo sapiens) (UniProt P08709+P13726) | 2PT = ____
6.1

Form: Entry = Cc1nn(-c2ccc3onc(N)c3c2)c2c1CCN(c1ccc(-c3ccccc3CN3CCCC3)cc1)C2=O | System = Coagulation factor VII/tissue factor (Homo sapiens) (UniProt P08709+P13726) | 2PT = ____
1.4

Form: Entry = CN(C)Cc1ccccc1-c1ccc(N2CCc3c(C(F)(F)F)nn(-c4ccc5onc(N)c5c4)c3C2=O)cc1 | System = Coagulation factor VII/tissue factor (Homo sapiens) (UniProt P08709+P13726) | 2PT = ____
2.7

Turning now to a further record.
Form: Entry = Nc1noc2ccc(-n3nc(C(F)(F)F)c4c3C(=O)N(c3ccc(-c5ccccc5CN5CCC(O)CC5)cc3)CC4)cc12 | System = Coagulation factor VII/tissue factor (Homo sapiens) (UniProt P08709+P13726) | 2PT = ____
4.9
